Experimental Details: soluble on expression in E. coli; label from the status in PepcDB or PDB records

{"columns": ["Sequence Entry", "soluble on expression in E. coli"],
 "data": [
  ["MGSDKIHHHHHHEADNYEPPKVDLKDQIPIILIHGSGGNASSLDKMADQLMNEYRSSNEALTMTVNSEGKIKFEGKLTKDAKRPIIKFGFEQNQATPDDWSKWLKIAMEDLKSRYGFTQMDGVGHSNGGLALTYYAEDYAGDKTVPTLRKLVAIGSPFNDLDPNDNGMDLSFKKLPNSTPQMDYFIKNQTEVSPDLEVLAIAGELSEDNPTDGIVPTISSLATRLFMPGSAKAYIEDIQVGEDAVHQTLHETPKSIEKTYWFLEKFKTDETVIQLDYK", "not soluble"],
  ["MGSDKIHHHHHHMNLGNPIAKGNTAEIYLYDNKIMKLFKDYLPNTESMNEAKKQKYAYSCGLPVPNVFEVTKIQNRQAIIMEYVKGDSIGDLLLNNLNEAEYYINICVNEQKKIHAIHVNTDEMEAMGERLERQIKSVHKLDEKQKESILNKLHSIKLDPRLCHGDFHPFNLILSEKNVSIIDWIDASSGDIRADLFRTYLLYSQSSVELAEKYLHIYCRNTGLSRDEIFQWAPIIIAARISENVTATNIEYLNDLVAQYCN", "not soluble"],
  ["MSLHPASANLSPSSVKNCSAKTFGFLILPNFTTIGLASAVETLRMANLAARKPLYRSVLIAADDAPVVASNGMRVLPDYNITNAPALDALLVVGANPIDRSRSNRPLIDWLRQLARQRLPLGGICTGSYLLAKAELLKGYRCTIHWEDLPTLQAHFPGIVISSQLFELDRDRYTCSGGVAAMDMMLQLVARDTGGQDIAAKAAELLLCDRVRGEREGHHHHHH", "soluble"],
  ["MELLRPEATVLSLGRRVLSFDREGRPYHYFREGKTYKRALDGSLHLRYREGERRRRRLAPEEALGVYQEVLDLAEAHLRDERRREEVLRWTPEGLLDPTPYRRAYAWPVSILPPDAYLSVVLQATTGCTWNRCAFCSFYQDRPFQKRTPEAFREHIQAVLALLGRGRLLRRGVFLADGNALALSEPLLPLLELVRAHFPGEPVMGFLDLFTGLKKAPSWWERLGGMGLRRVYIGLETGHAPLLALLRKPGHPKEVLPLVRALKSSGLSVGVILMVGSGGKAFAEAHFRESLALLAELPLGRGDVVYLSPFREDPGTPYAALGLAPLEDLEGELQRWAQAVRRLGLRASRYEIRE", "soluble"],
  ["SHPALTQLRALRYSKEIPALDPQLLDWLLLEDSMTKRFEQQGKTVSVTMIREGFVEQNEIPEELPLLPKESRYWLREILLSADGEPWLAARTVVPVSTLSGPELALQKLGKTPLGRYLFTSSTLTRDFIEIGRDAGLWGRRSRLRLSGKPLLLTELFLPASPLY", "soluble"],
  ["MGSDKIHHHHHHMIQTPVIVTFANQKGGVGKTTLCVTFANYLVAKGVRVLVIDCDFQHSIMKCRKADIKKYGEEQLPYEVWSYEPNNKVEMTSLVEKLHNDPEIDVVLIDSPGSLKAEGLVPIFVNSDIIVVPFHYDLVTIPSTASFLLFLDRLRQAVGERMKAQLFIIPNLNDNRVGKRSELILWDNTRETFSNYGYVTGKIPRRADMERFSTIAALDMQYRYVSSVFDKIYFSIFDKTGPIREMELSGIQLTENLYPKSGKKKYQAETSTHIALDEAEDEEQENNSEHQHNQ", "not soluble"],
  ["NAFVSIQTSTIPKTAFVARDFVPLQNRGNQWVAPVRASEDDPALAKSYLDFAIIEVPLFLHNQMDKQIYDHFMRPAINTYERLGNSVGIFAYQPMASFKRDSYFALGYPQVESNIAALNLNQTEVKPTRPEDVAQVTFKEPWSVDHHREIPTLTTNQLTTIKTKHFSGSKLSWPFDHTKSF", "not soluble"],
  ["MDGLDYFEPNPDYRVAATVEVDDSDETITMETTAEGERLYERVARLTFEVPDASDNRDEHTLVAYQRVDQRGDGSLFVPFRDKTTGQQTYPAGRYMELHYEGDLEDGATVPLDFNLAYNPFCAYSDAYECPLPPQENWLEIVVPAGERDDQLEHHHHHH", "soluble"],
  ["MSVLIPLVTVDGRDSVLLTKRSIHLRSHRGEVCFPGGRMDPGETTTETALRETFEEIGVNAESVEIWGHLKSVIRRQADFNVTPIVGYISDERVLENLVVNSDEVQAVFTIPIDELIKKAGLTKFQSKRMKYTLPSFDSTEFKVHHNAPNEYLHSTQRVWGLSGVMLHQALTLLNPDVYKHDLIVKFF", "not soluble"],
  ["SNAMELEQKLNLLNDLIVREIVNPLPPPYKVGVDLGTADIVLVVTDQEGIPVAGALKWASVVKDGLVVDYIGAIQIVRELKAKVERLLGSELFQAATAIPPGTVGRNAEACGHVVAGAGLELVTLVDEPVAAARALGINDGIVVDIGGGTTGIAVIEKGKITATFDEPTGGTHLSLVLAGSYKIPFEEAETIKKDFSRHREIMRVVRPVIEKMALIVKEVIKNYDQTLPVYVVGGTAYLTGFSEEFSRFLGKEVQVPIHPLLVTPLGIALFG", "soluble"],
  ["MSTGKIQFAEQNGSFVLKFVGEVRLTLCSALDSTIEKIFAALNFSAIIIDLTETQSIDSTTLGLLAKLSILSRQKIGLLPTLVTTNPDITRLLQSMGFDQVFNIVDRPIPCPECLSDLPPQDQSEDVVRDKVLEAHRILMGLNESNREAFHDLVSALERH", "not soluble"],
  ["MQQERTVKVSKYLSKHLRHQPERIGLTPDEGGWVEIDALVAAAAAHGFPFTRQELDHVVATNDKRRFAVEGTRIRASQGHSIAVDLRLPVATPPPYLYHGTVARHLEAIRAEGLRPMNRHDVHLSPDRETATRVGARRGRPVVLPVDAATMHRDGHVFHVSANGVWLTQHVPSRYLRFPAPHLEHHHHHH", "not soluble"],
  ["MSLFFGFTSCLDICPSTLTILGQAEKHRENLPETQRPQVLFVSINPDRDSPLRLSGYARAFHKNILTTTADTPALQRFATALGLRFRKVPGKSYAENPLDDTMDHPTAIVVLDPQGHHVGMIHPPFNAEEIPTDLQKLTKEITEGHHHHHH", "not soluble"]
]}
